# ASSAY REMARKS: Plasma pharmacokinetics by validated LC–MS/MS
# Assay type: in vivo, human
# REPORTED CONDITIONS: human, plasma, oral, 3 mg, Mean t1/2, JMAD part (day 14); 3 mg QD; n = 6
PARAMETER: half-life
Please format your answer as a value with the unit trailing.

Exercise: Given the molecule CC#CC(=O)N[C@H]1CCCN(c2c(F)cc(C(N)=O)c3[nH]c(C)c(C)c23)C1 [Branebrutinib] , what is its reported half-life?
Solution: 1.51 h

---

# ASSAY REMARKS: Plasma pharmacokinetics by validated LC–MS/MS
# Format: in vivo, human
# REPORTED CONDITIONS: human, plasma, oral, 10 mg, GM Cmax, MAD part (day 14); 10 mg QD; n = 5
PARAMETER: Cmax
Just the number plus its unit, please.

Exercise: Can you look up the measured Cmax of "CC#CC(=O)N[C@H]1CCCN(c2c(F)cc(C(N)=O)c3[nH]c(C)c(C)c23)C1" for me?
Solution: 60.5 ng/mL

---

# ASSAY REMARKS: Plasma pharmacokinetics by validated LC–MS/MS
# Assay type: in vivo, human
# REPORTED CONDITIONS: human, plasma, oral, 3 mg, GM AUCinf, JMAD part (day 14); 3 mg QD; n = 6
PARAMETER: AUC(0-inf) (ng·h/mL)
One number for each entry, in ng·h/mL.

Exercise: For "CC#CC(=O)N[C@H]1CCCN(c2c(F)cc(C(N)=O)c3[nH]c(C)c(C)c23)C1" , what is its reported AUC(0-inf)?
Solution: 27.4

---

# ASSAY REMARKS: Plasma pharmacokinetics by validated LC–MS/MS
# Assay type: in vivo, human
# REPORTED CONDITIONS: human, plasma, oral, 10 mg, Mean t1/2, JMAD part (day 14); 10 mg QD; n = 6
PARAMETER: half-life (h)
Numbers only, in h.

Exercise: Suppose we examine the molecule CC#CC(=O)N[C@H]1CCCN(c2c(F)cc(C(N)=O)c3[nH]c(C)c(C)c23)C1 [Branebrutinib] ; what half-life value has been reported?
Solution: 1.7

---

# ASSAY REMARKS: Plasma pharmacokinetics by validated LC–MS/MS
# Format: in vivo, human
# REPORTED CONDITIONS: human, plasma, oral, 10 mg
PARAMETER: Vd/F (L)
Numbers only, in L.

Exercise: Requested field: Vd/F. Item: "CC#CC(=O)N[C@H]1CCCN(c2c(F)cc(C(N)=O)c3[nH]c(C)c(C)c23)C1"
Solution: 221

---

# ASSAY REMARKS: Plasma pharmacokinetics by validated LC–MS/MS
# Type: in vivo, human
# REPORTED CONDITIONS: human, plasma, oral, 0.3 mg, GM Cmax, MAD part (day 14); 0.3 mg QD; n = 6
PARAMETER: Cmax (ng/mL)
Answers are plain numbers, in ng/mL.

Exercise: // lookup Cmax for "CC#CC(=O)N[C@H]1CCCN(c2c(F)cc(C(N)=O)c3[nH]c(C)c(C)c23)C1"
Solution: 2.2

---

# ASSAY REMARKS: Plasma pharmacokinetics by validated LC–MS/MS
# Assay type: in vivo, human
# REPORTED CONDITIONS: human, plasma, oral, 3 mg, GM Cmax, MAD part (day 14); 3 mg QD; n = 6
PARAMETER: Cmax (ng/mL)
One number for each entry, in ng/mL.

Exercise: Quick one: Cmax of "CC#CC(=O)N[C@H]1CCCN(c2c(F)cc(C(N)=O)c3[nH]c(C)c(C)c23)C1" ?
Solution: 17.8
